Biological target: T1, Rat Semaphorin3A-Sema Domain, TPP-19120 (rat, UniProt Q63548 21-569)
T1 construct: produced inhouse
T1 sequence: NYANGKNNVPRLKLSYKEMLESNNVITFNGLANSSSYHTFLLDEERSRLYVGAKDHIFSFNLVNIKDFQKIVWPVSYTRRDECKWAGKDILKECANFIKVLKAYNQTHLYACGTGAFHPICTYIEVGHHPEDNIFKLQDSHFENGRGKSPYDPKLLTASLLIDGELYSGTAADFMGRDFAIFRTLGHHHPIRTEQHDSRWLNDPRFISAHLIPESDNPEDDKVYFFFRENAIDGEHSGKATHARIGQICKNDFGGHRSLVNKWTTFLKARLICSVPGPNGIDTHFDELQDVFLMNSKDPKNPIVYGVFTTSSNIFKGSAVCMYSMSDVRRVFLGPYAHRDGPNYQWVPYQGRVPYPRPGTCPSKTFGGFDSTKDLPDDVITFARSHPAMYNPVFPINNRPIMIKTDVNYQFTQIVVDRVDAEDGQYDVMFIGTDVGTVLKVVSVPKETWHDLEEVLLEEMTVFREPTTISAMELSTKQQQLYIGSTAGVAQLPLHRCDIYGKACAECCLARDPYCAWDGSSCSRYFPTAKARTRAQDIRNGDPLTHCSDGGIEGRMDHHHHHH
Test: SPR, captured antibody, Sema3A domain analyte
Catalogue of Kd readings, one per entry.
Value expressed in nM; do not type the unit.

[[record]]
binder = "TPP-17755 (antibody, human IgG1, lambda, V domains shown, also called Samsung; Samsung Prior Art F11) VH: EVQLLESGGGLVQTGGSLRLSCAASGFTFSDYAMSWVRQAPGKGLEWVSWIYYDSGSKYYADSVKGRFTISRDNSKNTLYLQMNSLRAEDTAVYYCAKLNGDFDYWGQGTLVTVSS VL: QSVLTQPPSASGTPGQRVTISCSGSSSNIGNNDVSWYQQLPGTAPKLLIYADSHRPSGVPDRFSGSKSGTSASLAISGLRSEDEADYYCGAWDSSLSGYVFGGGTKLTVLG"
readout_unit = "nM"
number = 5.4


Consider the record given below.
query: For the binder TPP-30789 (antibody, human IgG1, kappa, V domains shown, prior art, WO 2020/225400; also called BI clone II; Böhringer (BI) Clone II) VH: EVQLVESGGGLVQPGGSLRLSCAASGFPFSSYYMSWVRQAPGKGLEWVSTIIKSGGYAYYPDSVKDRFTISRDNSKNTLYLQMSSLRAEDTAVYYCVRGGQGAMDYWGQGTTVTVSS VL: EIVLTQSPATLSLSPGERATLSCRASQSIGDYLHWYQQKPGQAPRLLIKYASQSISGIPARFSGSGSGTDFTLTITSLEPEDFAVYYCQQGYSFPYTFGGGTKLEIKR , give its reported Kd.
result: 0.026
